testSystem: full-length beta-Catenin (Uniprot ID P35222) (Homo sapiens, UniProt P35222)
Construct: 10 nM full-length beta-Catenin (Uniprot ID P35222)
Sequence (P35222 whole entry): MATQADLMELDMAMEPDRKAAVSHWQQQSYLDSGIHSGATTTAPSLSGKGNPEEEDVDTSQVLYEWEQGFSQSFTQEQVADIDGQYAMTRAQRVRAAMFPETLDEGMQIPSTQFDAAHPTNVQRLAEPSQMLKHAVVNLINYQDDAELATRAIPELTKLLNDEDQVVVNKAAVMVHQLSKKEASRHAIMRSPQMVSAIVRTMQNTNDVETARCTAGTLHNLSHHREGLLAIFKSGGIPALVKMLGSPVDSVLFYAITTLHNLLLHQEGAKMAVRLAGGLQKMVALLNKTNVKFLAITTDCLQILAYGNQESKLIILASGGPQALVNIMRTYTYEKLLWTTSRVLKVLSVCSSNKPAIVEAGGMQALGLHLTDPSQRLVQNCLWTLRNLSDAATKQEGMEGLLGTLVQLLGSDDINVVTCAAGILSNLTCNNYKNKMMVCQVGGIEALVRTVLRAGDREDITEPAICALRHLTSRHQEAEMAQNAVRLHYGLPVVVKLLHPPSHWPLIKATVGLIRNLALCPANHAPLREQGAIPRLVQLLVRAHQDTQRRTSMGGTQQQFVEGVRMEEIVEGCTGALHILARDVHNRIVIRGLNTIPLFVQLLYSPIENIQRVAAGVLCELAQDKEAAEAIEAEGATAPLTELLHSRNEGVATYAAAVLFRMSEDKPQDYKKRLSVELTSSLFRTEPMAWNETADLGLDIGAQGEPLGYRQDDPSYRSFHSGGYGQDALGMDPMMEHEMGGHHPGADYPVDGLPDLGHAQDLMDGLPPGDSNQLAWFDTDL
experiment: Fluorescence polarization IC50 (beta-catenin / 5FAM-TCF4 10-53 competition)
Type: binding
conditionSummary: read-out: beta-Catenin FP IC50
measure: IC50 (nM)

>>> numericresult("CC(=O)N1CCC[C@]12CC=CCCCC1(CCCC=CCCCOC(=O)N3CC[C@@](C(=O)N[C@@H](Cc4ccsc4)C(=O)N[C@@H](Cc4csc5ccccc45)C(=O)NC(CCCCNC(=O)c4ccc5c(c4)B(O)OC5)C(N)=O)(C3)NC(=O)[C@H](CC(C)C)NC(=O)[C@H](Cc3ccccc3)NC(=O)[C@H](C)NC(=O)[C@H](C)NC(=O)[C@H](CN(CC(=O)O)CC(F)(F)F)NC(=O)[C@H](CC(=O)O)NC1=O)NC(=O)[C@H](CC(C)(C)C)NC(=O)[C@H](CC(=O)O)NC2=O (stereo partly drawn) [I-2187]")
28
>>> numericresult("CC(=O)N1CCC[C@]12CC=CCCCC1(CCCC=CCCCCCC[C@@](C)(C(=O)N[C@@H](Cc3ccccc3Br)C(=O)N[C@@H](Cc3csc4ccccc34)C(=O)N[C@@H](CCC(N)=O)C(N)=O)NC(=O)[C@H](CC(N)=O)NC(=O)[C@H](Cc3ccccc3)NC(=O)[C@H](C)NC(=O)[C@H](C)NC(=O)[C@H](CN(CC(=O)O)CC(F)(F)F)NC(=O)[C@H](CC(=O)O)NC1=O)NC(=O)[C@H](CC(C)(C)C)NC(=O)[C@H](CC(=O)O)NC2=O (stereo partly drawn) [I-932]")
35
>>> numericresult("CC(=O)N1CCC[C@]12CC=CCCCC1(CCCC=CCCCOC(=O)N3CC[C@@](C(=O)N[C@@H](Cc4ccccc4F)C(=O)N[C@@H](Cc4csc5ccccc45)C(=O)N[C@@H](CCC(N)=O)C(N)=O)(C3)NC(=O)[C@H]([C@@H](C)O)NC(=O)[C@H](Cc3ccccc3)NC(=O)[C@H](C)NC(=O)[C@H](C)NC(=O)[C@H](CC(=O)O)NC(=O)[C@H](CC(=O)O)NC1=O)NC(=O)[C@H](CC(C)(C)C)NC(=O)[C@H](CC(=O)O)NC2=O (stereo partly drawn) [I-1021]")
5

These entries and their values trace back to patent US20240116985A1.
